Just for reference, patent US20230029453A1 is where these values come from.

Assign Exch I (%) to each entry below.
Molecular target: T1, HLA-B*27:05 (human, biotinylated heavy chain)
T1 construct: Conditional HLA class I complex as for m1
Test: UV peptide exchange; HLA class I ELISA
Form entry: value (%) — number only.

// field: Exch I (%); key: SLYHREKQL [Peptide 4, 9-mer SLYHREKQL derived from P22 (SEQ ID NO: 1003)] ; value = 19

For reference, reported Exch I (%) for HREKQLIAM [Peptide 7, 9-mer HREKQLIAM derived from P22 (SEQ ID NO: 1003)] stands at 32.3

Entry under test: SLIAMDSAI [Peptide 3, 9-mer SLIAMDSAI derived from FUS1 (SEQ ID NO: 1001)] . Its Exch I (%) was 7.1

Note to self: Exch I (%) recorded for KQLIAMDSA [Peptide 9, 9-mer KQLIAMDSA derived from P22 (SEQ ID NO: 1003)] was 11.8

Query IAMDSAITL [Peptide 2, 9-mer IAMDSAITL derived from FUS1 (SEQ ID NO: 1001)] yields Exch I (%) of 10.1

Documented Exch I (%) of YHREKQLIA [Peptide 6, 9-mer YHREKQLIA derived from P22 (SEQ ID NO: 1003)] : 14.4

# Exch I (%) (binder: AMDSAITLW [Peptide 1, 9-mer AMDSAITLW derived from FUS1 (SEQ ID NO: 1001)] ) is 10.3

Record LYHREKQLI [Peptide 5, 9-mer LYHREKQLI derived from P22 (SEQ ID NO: 1003)] , field Exch I (%): 19.3

binder LIAMDSAIT [Peptide 10, 9-mer LIAMDSAIT derived from P22 (SEQ ID NO: 1003)] , Exch I (%) observed: 8.5
